Target: AuroraB (Homo sapiens, UniProt Q96GD4)
Construct: 20 μL of AuroraB FL H is for a final volume of 41 μL; His
Sequence (Q96GD4 whole entry): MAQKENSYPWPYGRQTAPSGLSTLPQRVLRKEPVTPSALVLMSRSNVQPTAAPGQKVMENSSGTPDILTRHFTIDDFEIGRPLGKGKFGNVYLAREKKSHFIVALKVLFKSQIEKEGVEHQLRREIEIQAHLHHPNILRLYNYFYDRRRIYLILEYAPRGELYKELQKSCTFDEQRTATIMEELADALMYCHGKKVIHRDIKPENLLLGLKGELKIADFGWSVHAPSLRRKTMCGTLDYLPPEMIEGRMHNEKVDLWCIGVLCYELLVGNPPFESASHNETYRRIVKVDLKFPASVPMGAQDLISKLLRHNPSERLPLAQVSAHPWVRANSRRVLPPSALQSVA
Assay: AuroraB Homogeneous Time Resolved Fluorescent (HTRF) kinase assay
Type: biochemical
Conditions: average; read-out: AurB_IC50_IP (uM Avg)
Measure: IC50 (µM)
Please reply with the bare figure in µM and do not write the unit itself.

Recall the recorded IC50 for COc1cnc2c(Oc3ccc(Nc4nnc(-c5ccc(SC)cc5)c5ccccc45)cc3)ccnc2c1 with AuroraB (Homo sapiens, UniProt Q96GD4) and state it.
0.005

Let us now turn to COc1cnc2c(Oc3ccc(Nc4nnc(-c5cnn(C)c5)c5ccccc45)cc3)ccnc2c1
0.006

Let us now turn to COc1ccc2c(Oc3ccc(Nc4nnc(-c5ccc(Cl)cc5)c5ccccc45)cc3)ccnc2c1
0.024

Let us now turn to Clc1ccc(-c2nnc(Nc3ccc(Oc4ncnc5ccsc45)cc3)c3ccccc23)cc1
0.005

Let us now turn to Clc1ccc(-c2nnc(Nc3ccc(Oc4ccnc5cccnc45)cc3)c3ccccc23)cc1
0.011

Let us now turn to COc1cnc2c(Oc3ccc(Nc4nnc(-c5cccc(Cl)c5)c5ccccc45)cc3)ccnc2c1
0.01

Let us now turn to Cc1ccc(-c2nnc(Nc3ccc(Oc4ccnc5cc(C#N)ccc45)cc3)c3ccccc23)s1
0.004

Let us now turn to CCc1cc(-c2ccc(C)cc2)nnc1Nc1ccc(Nc2ccnc3cc(OC)cnc23)cc1
0.023
